Listed below: log10 of koff values for each entry.
Target: T1, hIL10Rb-his (Sino Biological, Catalog#10945) (human, UniProt Q08334 20-220)
T1 construct: Bought; also called Sino Biological cat#10945-H08H; not shown: C-terminal poly-His tag
T1 sequence: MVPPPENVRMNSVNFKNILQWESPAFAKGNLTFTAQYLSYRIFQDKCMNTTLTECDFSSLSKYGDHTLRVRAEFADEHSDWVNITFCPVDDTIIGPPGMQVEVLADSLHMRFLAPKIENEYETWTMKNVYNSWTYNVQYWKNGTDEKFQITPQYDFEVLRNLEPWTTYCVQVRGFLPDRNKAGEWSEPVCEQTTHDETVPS
Assay: SPR Biacore T200; mono-Fc VHH captured on Protein A chip, hIL10Rb-his analyte; 1:1 Langmuir fit
On a log10 scale: recorded koff, unit s⁻¹.

>>> numericreadout("hIL-10Rb_VHH15 Mono-Fc (Fc fusion, Mono-Fc VHH captured on Protein A; not shown: mono-Fc part) QVQLQESGGGSVQAGGSLRLSCTVSRYTASVNYMGWFRQAPGKEREGVATIFTGAGTTYYANSVKGRFTISRDNAKNTAYLQMNSLKPEDTAIYYCAVDFRGGLLYRPAYEYTYRGQGTQVTVSS")
-2.06
>>> numericreadout("hIL-10Rb_VHH1 Mono-Fc (Fc fusion, Mono-Fc VHH captured on Protein A; not shown: mono-Fc part) QVQLQESGGGSVQAGGSLRLSCAASGYTYSSGCMGWFRQAPGKEREAVAAINSDGSTSYADSVKGRFTISKDNAKNTLYLQMNSLKPEDTAMYYCAAEPYCSGGYPRWSVAEFGYWGQGTQVTVSS")
-2.84
>>> numericreadout("hIL-10Rb_VHH12 Mono-Fc (Fc fusion, Mono-Fc VHH captured on Protein A; not shown: mono-Fc part) QVQLQESGGGSVQAGGSLRLSCAASGYTYSSYCMGWFRQAPGKEREGVAHIDSDGSTSYADSVKGRFTISKDNAKNTLYLQMNSLKPEDTAMYYCAADPIPGPGYCDGGPNKYWGQGTQVTVSS")
-2.84

Need log10 of koff, item hIL-10Rb_VHH27 Mono-Fc (Fc fusion, Mono-Fc VHH captured on Protein A; not shown: mono-Fc part) QVQLQESGGGSVQTGGSLRLSCAASGYTYLRGCMGWFRQAPGKEREGVAVMDVVGDRRSYIDSVKGRFTISRDNAANSVYLQMDNLKPEDTAMYYCTAGPNCVGWRSGLDYWGQGTQVTVSS
-1.60

Need log10 of koff, item hIL-10Rb_VHH3 Mono-Fc (Fc fusion, Mono-Fc VHH captured on Protein A; not shown: mono-Fc part) QVQLQESGGGSVQAGGSLRLSCAASRYTYNSYCMGWFRQAPGKEREGVATIDSDGMTRYADSVKGRFTISKDNAKNTLYLQMNSLKPEDTAMYYCAADADCTIAAMTTNPLGQGTQVTVSS
-1.67

Need log10 of koff, item hIL-10Rb_VHH26 Mono-Fc (Fc fusion, Mono-Fc VHH captured on Protein A; not shown: mono-Fc part) QVQLQESGGGSVQAGGSLRLSCAASGYSYSSYCMGWFRQAPGKEREGVATIDSDGMTRYADSVKGRFTISKDNAKNTLYLQMNSLKPEDTAMYYCAAPLYDCDSGAVGRNPPYWGQGTQVTVSS
-1.67
